Cited source for all entries: the kinase profiling compilation of Christmann-Franck et al. (2016)

Molecular target: MAPK11 (human)
Conditions: compound 1.0 µM
endpoint: per cent of control

Use the examples below as a reference point.
COc1ccc(-c2ccc3c(N4CCOCC4)nc(N4C[C@@H](C)O[C@@H](C)C4)nc3n2)cc1CO = 106%
CCC(=O)N1CCN(c2ccc(-n3c(=O)ccc4cnc5ccc(-c6cnc7ccccc7c6)cc5c43)cc2C(F)(F)F)CC1 = 83%
COC(=O)Nc1ccc(-c2nc(N3CCOCC3)c3cnn(C4CCN(C(=O)OC)CC4)c3n2)cc1 = 82%

Consider now this further compound.
q: Field: per cent of control (MAPK11 (human)). Entry: CC(C)n1nc(-c2cc3cc(O)ccc3[nH]2)c2c(N)ncnc21
a: 91%

* * *

Biological target: STK32B (human)
Assay: KINOMEscan competition binding
Details: compound 10.0 µM
endpoint: kinase still bound, per cent of control (%)
Give just the numeric value; % need not be written.

COc1ccc(-c2ccc3c(N4CCOCC4)nc(N4C[C@@H](C)O[C@@H](C)C4)nc3n2)cc1CO = 100
CC(C)n1nc(-c2cc3cc(O)ccc3[nH]2)c2c(N)ncnc21 = 8.2

q: For the compound CCC(=O)N1CCN(c2ccc(-n3c(=O)ccc4cnc5ccc(-c6cnc7ccccc7c6)cc5c43)cc2C(F)(F)F)CC1 , what kinase still bound, per cent of control is on record?
a: 87

q: For the compound COC(=O)Nc1ccc(-c2nc(N3CCOCC3)c3cnn(C4CCN(C(=O)OC)CC4)c3n2)cc1 , what kinase still bound, per cent of control is on record?
a: 100

* * *

Measured kinase still bound, per cent of control by item
Molecular target: RET (human)
Experiment: KINOMEscan competition binding
Conditions: compound 10.0 µM
Give just the numeric value; % need not be written.

Use the examples below as a reference point.
CCC(=O)N1CCN(c2ccc(-n3c(=O)ccc4cnc5ccc(-c6cnc7ccccc7c6)cc5c43)cc2C(F)(F)F)CC1 = 44
COC(=O)Nc1ccc(-c2nc(N3CCOCC3)c3cnn(C4CCN(C(=O)OC)CC4)c3n2)cc1 = 93
COc1ccc(-c2ccc3c(N4CCOCC4)nc(N4C[C@@H](C)O[C@@H](C)C4)nc3n2)cc1CO = 91

Consider now this further molecule.
q: For the molecule CC(C)n1nc(-c2cc3cc(O)ccc3[nH]2)c2c(N)ncnc21 , what kinase still bound, per cent of control is on record?
a: 0

* * *

Target: STK25 (human) (UniProt O00506)
Sequence (O00506 whole entry, looked up): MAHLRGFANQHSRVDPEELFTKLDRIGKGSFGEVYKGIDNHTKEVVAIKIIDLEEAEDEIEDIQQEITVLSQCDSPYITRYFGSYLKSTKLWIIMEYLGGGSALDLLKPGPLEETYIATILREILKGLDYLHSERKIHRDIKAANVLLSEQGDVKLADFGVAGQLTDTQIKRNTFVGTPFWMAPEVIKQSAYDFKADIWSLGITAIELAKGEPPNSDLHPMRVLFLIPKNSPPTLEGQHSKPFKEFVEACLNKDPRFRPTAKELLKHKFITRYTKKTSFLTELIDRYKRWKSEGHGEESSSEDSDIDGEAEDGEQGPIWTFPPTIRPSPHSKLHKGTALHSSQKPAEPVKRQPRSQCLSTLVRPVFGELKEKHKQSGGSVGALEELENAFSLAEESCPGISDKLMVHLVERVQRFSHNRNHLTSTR
Experiment: KINOMEscan competition binding
Details: compound 10.0 µM
Measured kinase still bound, per cent of control by item
Give just the numeric value; % need not be written.

Use the examples below as a reference point.
CC(C)n1nc(-c2cc3cc(O)ccc3[nH]2)c2c(N)ncnc21 = 53
COC(=O)Nc1ccc(-c2nc(N3CCOCC3)c3cnn(C4CCN(C(=O)OC)CC4)c3n2)cc1 = 78
COc1ccc(-c2ccc3c(N4CCOCC4)nc(N4C[C@@H](C)O[C@@H](C)C4)nc3n2)cc1CO = 100

q: For the compound CCC(=O)N1CCN(c2ccc(-n3c(=O)ccc4cnc5ccc(-c6cnc7ccccc7c6)cc5c43)cc2C(F)(F)F)CC1 , what kinase still bound, per cent of control is on record?
a: 84

* * *

Biological target: FLT1 (human)
Assay: KINOMEscan competition binding
Conditions: compound 10.0 µM
endpoint: kinase still bound, per cent of control (%)
Give just the numeric value; % need not be written.

Use the examples below as a reference point.
CC(C)n1nc(-c2cc3cc(O)ccc3[nH]2)c2c(N)ncnc21 = 25
COc1ccc(-c2ccc3c(N4CCOCC4)nc(N4C[C@@H](C)O[C@@H](C)C4)nc3n2)cc1CO = 92
COC(=O)Nc1ccc(-c2nc(N3CCOCC3)c3cnn(C4CCN(C(=O)OC)CC4)c3n2)cc1 = 100

q: For the molecule CCC(=O)N1CCN(c2ccc(-n3c(=O)ccc4cnc5ccc(-c6cnc7ccccc7c6)cc5c43)cc2C(F)(F)F)CC1 , what kinase still bound, per cent of control is on record?
a: 79
